# credit: paper PMC10674894

Listing of recorded % Cell viability by entry.
System: CHIKV DRDE-07
Assay: In vitro screening against CHIKV (CPE inhibition and MTT cell viability)
Assay type: cell-based, chikungunya virus
Details: Table S1; 72 hpi, MTT assay, CHIKV-infected Vero cells
Number first, unit second: that is the form wanted.

INSERT INTO measurements (molecule, outcome_measure, test_value) VALUES
  ('CC(C)C1c2c(ccc3ccccc23)Oc2ccc3ccccc3c21 [DCR120]', '% Cell viability', '19.24%');

Query: What % Cell viability value was documented for this molecule, Cc1ccc(-c2cc(-c3ccc(O)cc3)nn2C(=O)c2cccnc2)cc1 [DCR57] ?
Reply: 24.84%

Query: Now consider CCOc1cc(C2C3=C(CC(C)(C)CC3=O)OC3=C2C(=O)CC(C)(C)C3)ccc1O [DCR130] .
Reply: 17.21%

Query: Next record, please: C#CCOC(=O)C1=C(C)NC(=O)NC1c1ccc(OC)cc1 (stereo not shown) [DCR86]
Reply: 10.59%

Query: Would you mind doing C#CCOC(=O)C1=C(C)NC(=O)NC1c1ccc(C(F)(F)F)cc1 (stereo not shown) [DCR91] as well?
Reply: 13.12%

Query: Another molecule to check: O=C(N/N=C/c1ccccc1[N+](=O)[O-])c1ccncc1 [DCR35]
Reply: 9.84%

Query: // repeat for CCc1ccc(C2c3c(ccc4ccccc34)Oc3ccc4ccccc4c32)cc1 [DCR118] and report
Reply: 14.23%

Query: Okay, and O=C(CCl)NNC(=O)c1ccncc1 [DCR12, N'-(2-chloroacetyl)isonicotinohydrazide] ?
Reply: 16.34%

Query: How about CC1(C)CC(=O)C2=C(C1)OC1=C(C(=O)CC(C)(C)C1)C2c1ccccn1 [DCR132] ?
Reply: 9.06%

Query: Another molecule to check: COc1ccc(-c2nc(CC(C)=O)no2)cc1 [DCR76]
Reply: 19.42%

Query: Try C/C(=N\NC(=O)c1cccnc1)c1ccccc1N [DCR46] next.
Reply: 27.31%

Query: Would you mind doing CC(=O)Cc1noc(-c2ccc([N+](=O)[O-])cc2)n1 [DCR77] as well?
Reply: 10.43%

Query: Could you do the same for O=C(N/N=C/c1cccc(Br)c1)c1ccncc1 [DCR37] , please?
Reply: 14.36%

Query: Next molecule: CC1(C)CC(=O)C2=C(C1)OC1=C(C(=O)CC(C)(C)C1)C2c1ccccc1Cl [DCR124]
Reply: 11.05%
